system.tested: UniProt P50613
Sequence (P50613 whole entry): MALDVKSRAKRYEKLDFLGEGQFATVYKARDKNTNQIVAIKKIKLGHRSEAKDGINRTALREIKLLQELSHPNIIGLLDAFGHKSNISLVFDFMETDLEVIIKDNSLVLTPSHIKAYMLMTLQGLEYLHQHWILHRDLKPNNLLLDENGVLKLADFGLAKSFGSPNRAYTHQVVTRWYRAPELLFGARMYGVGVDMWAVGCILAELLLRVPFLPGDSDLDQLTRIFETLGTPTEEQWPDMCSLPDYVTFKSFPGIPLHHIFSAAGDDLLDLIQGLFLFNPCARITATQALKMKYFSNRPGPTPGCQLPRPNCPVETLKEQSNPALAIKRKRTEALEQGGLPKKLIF
test: pIC50, kinobeads binding competition
particulars: cell material: Lysate mix
pIC50: recorded values
assay.endpoint: pIC50

>  <compound>
Cc1cc(Nc2cc(C(=O)NCCNC(=O)OC3CC/C=C/CCC3)nc(N3CCN(Cc4ccc(S(=O)(=O)F)cc4)CC3)n2)n[nH]1 (stereo not given)

>  <system.tested>
UniProt P50613

>  <reported.measurement>
< 4.52

$$$$
>  <compound>
CCNC(=O)c1cc(Nc2cc(C)[nH]n2)nc(N2CCN(Cc3ccc(S(=O)(=O)F)cc3)CC2)n1

>  <system.tested>
UniProt P50613

>  <reported.measurement>
5

$$$$
>  <compound>
C#CCNC(=O)c1cc(Nc2cc(C)[nH]n2)nc(N2CCN(Cc3ccc(S(=O)(=O)F)cc3)CC2)n1

>  <system.tested>
UniProt P50613

>  <reported.measurement>
5.14

$$$$
>  <compound>
C#CCNC(=O)c1cc(Nc2cc(C3CC3)[nH]n2)nc(N2CCN(Cc3ccc(S(=O)(=O)F)cc3)CC2)n1

>  <system.tested>
UniProt P50613

>  <reported.measurement>
6.35

$$$$
>  <compound>
CCNC(=O)c1cc(Nc2cc(C3CC3)[nH]n2)nc(N2CCN(Cc3ccc(S(=O)(=O)F)cc3)CC2)n1

>  <system.tested>
UniProt P50613

>  <reported.measurement>
6.33

$$$$
